- Test system: Saccharomyces cerevisiae;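 further: PSI is a weighted mean of sequencing reads over stability bins, variants kept only with over 10 reads, mCherry proximal and sfGFP distal, peptide attached via GGGS linker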
- ASSAY_REMARKS: protein stability index of tFT-peptide fusion (C-terminal peptide) (PSI (0-1 scale)); higher = more stable (slower turnover)
- TEST_SETTINGS: genetic background: das1 deletion; temperature: 37 C
MEASURED_PARAMETER: protein stability index
Numbers only.

# example entries with known answers
CLSGPFRSLAVF = 0.633
YCLSCLAKASLM = 0.569
ACVRLVLCVCRV = 0.409
GGSGGVSWRRVV = 0.725
HGVYSVLRFFFC = 0.671
VGVIGWGGLGVG = 0.549

Hello, I would appreciate it if you could give protein stability index for each entry below.
1. RNCSFRRIQLAM
2. SRSFFRRLLFCF

**A:**
1. 0.715
2. 0.814
